- Measurement Protocol: recombinant UMI read abundance after kanamycin selection (control-corrected) (log10(CPM+1)); higher = more efficient recombination; extreme values may be limits of the assay; sequences stand for … in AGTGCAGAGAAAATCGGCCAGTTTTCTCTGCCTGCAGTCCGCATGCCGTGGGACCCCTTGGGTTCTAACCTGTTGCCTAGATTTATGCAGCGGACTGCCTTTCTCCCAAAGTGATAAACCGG…AGGTTGGTTTCACT; site = the 11-nt donor;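 also: IS621 bridge recombinase in Escherichia coli cells against a fixed T5 target plasmid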
Response key: Y means recombinant UMI read abundance (log10) >= 0.7; N means recombinant UMI read abundance (log10) < 0.7.

Sequence Data | Class Label
AACGAGCCATGGACCGGTTTTCCCGGTAATCCGTATTTGGC (site AACGAGCCTGC) | N
CATACGCCATGGACCGGTTTTCCCGGTAATCCGTATTTGGG (site CATACGCCTCC) | N
AAATATGCATGGACCGGTTTTCCCGGTAATCCGTATTTGGA (site AACTATGCTTC) | Y
GCGTGCCCATGGACCGGTTTTCCCGGTAATCCGTATTTGAT (site GCTTGCCCTAT) | N
GTAGGTACATGGACCGGTTTTCCCGGTAATCCGTATTTGGC (site GTAGGTACTGC) | Y
GGGACTTCATGGACCGGTTTTCCCGGTAATCCGTATTTGTG (site GGGACTTCTCA) | Y
CGACTGGCATGGACCGGTTTTCCCGGTAATCCGTATTTGTA (site CGACTGGCTTA) | Y
CGCTCCTCATGGACCGGTTTTCCCGGTAATCCGTATTTGCT (site CGCTCCTCTAG) | Y
GTCATAGCATGGACCGGTTTTCCCGGTAATCCGTATTTGTT (site GTCATAGCTAA) | Y

Origin of measurements: the supplement of paper PMC11208160
